Target: human GR (Homo sapiens, UniProt P04150)
Construct: U937 cells contain an endogenous glucocorticoid receptor (GR); endogenous in cells; host or cells: U937 cells stably transfected with the TNF-alpha promoter/beta-lactamase reporter
Sequence (P04150 1-777): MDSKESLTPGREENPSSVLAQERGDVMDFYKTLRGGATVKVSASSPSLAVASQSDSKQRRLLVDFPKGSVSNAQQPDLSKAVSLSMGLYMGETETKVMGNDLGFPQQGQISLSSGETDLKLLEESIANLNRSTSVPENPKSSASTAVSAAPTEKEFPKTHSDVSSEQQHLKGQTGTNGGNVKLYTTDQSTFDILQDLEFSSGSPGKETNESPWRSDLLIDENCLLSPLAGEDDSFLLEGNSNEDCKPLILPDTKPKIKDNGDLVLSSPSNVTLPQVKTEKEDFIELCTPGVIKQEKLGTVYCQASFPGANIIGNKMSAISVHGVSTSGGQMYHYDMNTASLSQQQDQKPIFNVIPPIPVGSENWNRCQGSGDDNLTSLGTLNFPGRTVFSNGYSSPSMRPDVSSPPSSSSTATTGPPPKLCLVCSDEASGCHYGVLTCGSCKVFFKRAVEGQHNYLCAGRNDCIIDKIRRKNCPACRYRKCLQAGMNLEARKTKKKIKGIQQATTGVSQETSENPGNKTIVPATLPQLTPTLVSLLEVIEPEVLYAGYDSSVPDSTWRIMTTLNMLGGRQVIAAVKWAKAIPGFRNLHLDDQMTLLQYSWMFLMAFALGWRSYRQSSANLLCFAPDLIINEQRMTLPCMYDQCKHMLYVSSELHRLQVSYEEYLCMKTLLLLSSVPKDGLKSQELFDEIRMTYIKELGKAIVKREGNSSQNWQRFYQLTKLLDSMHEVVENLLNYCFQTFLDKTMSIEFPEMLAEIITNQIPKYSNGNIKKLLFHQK
Test: Transrepression Assay (GITAR), TNFα-β-lactamase reporter gene in U937 cells
Assay type: cell-based
Conditions: inflection point; U937 cells; Table 1; read-out: Transrepression U937 Cells GITAR IP
pEC50: −log10 of the molar value.
Mark no (0) for pEC50 values under 7, and yes (1) for everything at or above.

// known answers, use as guide
// query Hi, just wondering whether C[C@]12Cc3cnn(-c4ccc(F)cc4)c3C=C1CC[C@@H]2C(=O)N(CCO)Cc1cccc(F)c1 shows pEC50 of 7 or higher.
// result no (0)

// query hey, is pEC50 for this one >= 7? C[C@]12Cc3cnn(-c4ccc(F)cc4)c3C=C1CC[C@@H]2C(=O)N(CCO)Cc1cc(F)cc(F)c1
// result no (0)

// query Could you please find out whether CCCN(CC(O)C(F)(F)F)C(=O)[C@H]1CCC2=Cc3c(cnn3-c3ccc(F)cc3)C[C@@]21C (stereo partly shown) has pEC50 that meets 7 or exceeds it?
// result yes (1)

---
// query Assess whether reported pEC50 for COc1ccccc1CN(C)C(=O)[C@H]1CCC2=Cc3c(cnn3-c3ccc(F)cc3)C[C@@]21C sits at 7 or higher.
// result no (0)

====

Molecular target: human GR (Homo sapiens)
Construct: U937 cells contain an endogenous glucocorticoid receptor (GR); endogenous in cells; host or cells: U937 cells stably transfected with the TNF-alpha promoter/beta-lactamase reporter
Sequence (P04150 1-777): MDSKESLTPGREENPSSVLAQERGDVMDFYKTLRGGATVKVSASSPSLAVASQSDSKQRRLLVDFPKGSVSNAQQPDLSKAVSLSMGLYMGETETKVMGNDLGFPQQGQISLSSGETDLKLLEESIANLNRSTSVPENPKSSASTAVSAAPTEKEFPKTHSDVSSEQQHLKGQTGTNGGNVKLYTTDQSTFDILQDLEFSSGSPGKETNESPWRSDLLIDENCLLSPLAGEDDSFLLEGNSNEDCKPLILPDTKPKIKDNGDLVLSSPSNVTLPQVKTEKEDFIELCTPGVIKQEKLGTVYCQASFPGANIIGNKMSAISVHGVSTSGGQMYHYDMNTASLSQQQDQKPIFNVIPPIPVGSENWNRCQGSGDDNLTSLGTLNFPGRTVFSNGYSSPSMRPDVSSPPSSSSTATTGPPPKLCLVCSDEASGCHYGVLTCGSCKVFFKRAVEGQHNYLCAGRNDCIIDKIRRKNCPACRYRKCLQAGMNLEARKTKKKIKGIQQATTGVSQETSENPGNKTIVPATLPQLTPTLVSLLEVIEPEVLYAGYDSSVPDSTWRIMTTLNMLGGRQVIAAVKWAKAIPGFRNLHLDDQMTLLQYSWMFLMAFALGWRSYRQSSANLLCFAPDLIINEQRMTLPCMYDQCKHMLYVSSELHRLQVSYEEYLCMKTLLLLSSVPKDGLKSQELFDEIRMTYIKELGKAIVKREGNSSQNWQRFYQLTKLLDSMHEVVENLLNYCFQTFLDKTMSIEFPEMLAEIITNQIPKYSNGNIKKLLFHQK
Assay: Transrepression Assay (GITAR), TNFα-β-lactamase reporter gene in U937 cells
Format: cell-based
Settings: GITAR Emax minus GRAMMER Emax; Table 1
Endpoint name: GITAR Greater than by GRAMMER % SEP (%)
Note: unit % is implicit; provide only the numeric part.

Please review the following examples before continuing.
// query Which GITAR Greater than by GRAMMER % SEP value belongs to C[C@]12Cc3cnn(-c4ccc(F)cc4)c3C=C1CC[C@@H]2C(=O)N1CCCCC1CCc1ccccc1 (stereo partly shown) [Compound 18] ?
// result 6.3

// query Requested read-out: GITAR Greater than by GRAMMER % SEP. Entry: C[C@]12Cc3cnn(-c4ccc(F)cc4)c3C=C1CC[C@@H]2C(=O)NCc1ccc(Cl)cc1Cl [Compound 3]
// result 16.1

// query Return reported GITAR Greater than by GRAMMER % SEP; argument: CC(C)CN(C[C@@H](C)O)C(=O)[C@H]1CCC2=Cc3c(cnn3-c3ccc(F)cc3)C[C@@]21C [Compound 67]
// result 9.9

// query Which GITAR Greater than by GRAMMER % SEP is listed for C[C@]12Cc3cnn(-c4ccc(F)cc4)c3C=C1CC[C@@H]2C(=O)N(CCO)CCc1ccccc1 [Compound 35] ?
// result 30.8

// query I'd like to know its GITAR Greater than by GRAMMER % SEP. The compound in question is COC[C@H]1CCCN1C(=O)[C@H]1CCC2=Cc3c(cnn3-c3ccc(F)cc3)C[C@@]21C [Compound 43]
// result 19.5

// query Reported GITAR Greater than by GRAMMER % SEP, compound CN(CC#N)C(=O)[C@H]1CCC2=Cc3c(cnn3-c3ccc(F)cc3)C[C@@]21C [Compound 41] : ____
// result 35.4

Others:
// query Entry C[C@]12Cc3cnn(-c4ccccc4)c3C=C1CC[C@@H]2C(=O)N(CC1CC1)CC(O)C(F)(F)F (stereo partly shown) [Compound 81] has what GITAR Greater than by GRAMMER % SEP?
// result 7.8

====

Below, each of the compounds is paired with its reported Emax value.
Biological target: Glucocorticoid Receptor (Homo sapiens, UniProt P04150)
Construct: These cells express large amount of the GR and are very responsive to GC treatment; endogenous in cells; host or cells: A549 cells transiently transfected with the MMTV-LUC reporter
Assay: Trans-Activation Modulation of Glucocorticoid Receptor (GRAMMER), MMTV-LUC reporter gene in A549 cells
Format: cell-based
Conditions: A549, A549 cells; Emax relative to 300 nM dexamethasone; Table 1; read-out: Transactivation A549 Cells GRAMMER Emax
Please append the unit to your numeric answer.

Example compounds with recorded Emax:
// query I have this compound here, C[C@]12Cc3cnn(-c4ccc(F)cc4)c3C=C1CC[C@@H]2C(=O)N1CCCC(CCc2ccccc2)C1 (stereo partly drawn) [Compound 20] , and I need its recorded Emax.
// result 3.6%

// query # get_value(readout='Emax', item= CCCCN(CC=O)C(=O)[C@H]1CCC2=Cc3c(cnn3-c3ccc(F)cc3)C[C@@]21C [Compound 39] )
// result 27%

// query Give its Emax value. Item: C[C@]12Cc3cnn(-c4ccc(F)cc4)c3C=C1CC[C@@H]2C(=O)Nc1ccccc1 [Compound 6]
// result 1.3%

// query Return reported Emax; argument: CN(CCOc1ccccc1)C(=O)[C@H]1CCC2=Cc3c(cnn3-c3ccc(F)cc3)C[C@@]21C [Compound 48]
// result 2.7%

// query Field request: Emax | item: C[C@]12Cc3cnn(-c4ccc(F)cc4)c3C=C1CC[C@@H]2C(=O)N(Cc1ccc(Cl)cc1Cl)CC1CC1 [Compound 7]
// result 13.4%

Kindly consider the entry below.
// query For C[C@]12Cc3cnn(-c4ccc(F)cc4)c3C=C1CC[C@@H]2C(=O)N(CCO)c1ccccc1 [Compound 68] , what is its reported Emax?
// result 3.8%

====

// reported EC50 per item
Target: human GR (Homo sapiens, UniProt P04150)
Construct: U937 cells contain an endogenous glucocorticoid receptor (GR); endogenous in cells; host or cells: U937 cells stably transfected with the TNF-alpha promoter/beta-lactamase reporter
Assay: Transrepression Assay (GITAR), TNFα-β-lactamase reporter gene in U937 cells
Assay type: cell-based
Conditions: inflection point; U937 cells; Table 1; read-out: Transrepression U937 Cells GITAR IP
Entry rule: numbers only, all in nM.

Please review the following examples before continuing.
// query Fill blank: measured EC50 of the compound C[C@H](O)CN(CCc1ccccc1F)C(=O)[C@H]1CCC2=Cc3c(cnn3-c3ccc(F)cc3)C[C@@]21C is ____.
// result 714

// query Request the reported EC50 associated with C[C@]12Cc3cnn(-c4ccc(F)cc4)c3C=C1CC[C@@H]2C(=O)N(CCO)CC(=O)c1coc2ccccc12
// result 1840

// query Field request: EC50 | item: Cc1ccc(CCN(CC(O)C(F)(F)F)C(=O)[C@H]2CCC3=Cc4c(cnn4-c4ccc(F)cc4)C[C@@]32C)cc1 (stereo partly shown)
// result 362

// query I'd like to know its EC50. The compound in question is CCCN(CC)C(=O)[C@H]1CCC2=Cc3c(cnn3-c3ccc(F)cc3)C[C@@]21C
// result 1000

// query Request the reported EC50 associated with C[C@]12Cc3cnn(-c4ccc(F)cc4)c3C=C1CC[C@@H]2C(=O)Nc1ccccc1
// result 0.9

Continuing:
// query Any idea what its EC50 is? The compound is COc1ccccc1CCN(CC(O)CC(F)(F)F)C(=O)[C@H]1CCC2=Cc3c(cnn3-c3ccc(F)cc3)C[C@@]21C (stereo partly shown)
// result 869

// query # EC50 lookup, item CCN(CC)C(=O)[C@H]1CCC2=Cc3c(cnn3-c3ccc(F)cc3)C[C@@]21C
// result 3950
